- Tested on: RPMI-8226 leukemia
- experiment: NCI tumour cell line growth inhibition, 48 h
measured_parameter: log10 of TGI (log10 of the value in µM)

1) Cc1cc(-c2nnc(/C=C/c3ccc4c(c3)OCO4)o2)n[nH]1
1.51
2) CO[C@@H]1CCN(c2nccc(Nc3cc4c(C(C)C)ccc(N5CC(CS(C)(=O)=O)[C@H]5C)c4cn3)n2)C[C@@H]1F (stereo not given in full)
0.87
3) O/N=C(/C(Cl)=C(Cl)Cl)C(Cl)Cl
1.70
4) CC(=O)NC1C(OC(C)C(=O)NC(C(=O)NC(CCC(=O)NCCCNC2c3ccccc3Nc3cccc([N+](=O)[O-])c32)C(N)=O)C(C)C)C(O)C(CO)OC1(C)OCc1ccccc1 (stereo not given)
0.00
5) CN(C)CCNCc1ccc2c(-c3ccccc3)nc3cc(Cl)c(Cl)cc3n12
1.57
6) CCOC(=O)C(C)Sc1nnc(COc2ccc(Cl)cc2)n1-c1ccccc1 (stereo not given)
1.66
7) C[C@@H](CC(=O)O)OC1OC(COC(=O)C(C)(C)C)C(OC(=O)C(C)(C)C)C(OC(=O)C(C)(C)C)C1OC(=O)C(C)(C)C (stereo not given in full)
1.86
8) Cc1cc(N(CCC#N)CCC#N)ccc1N=Nc1cc(Cl)ccc1Cl
1.54
9) C[N+](C)(C)CC1CCC(C[N+](C)(C)C)C1=O (stereo not given)
1.43
10) COc1cc(Cl)cc(-c2nn(-c3cccc(NC(=O)Nc4cccc(C(F)(F)F)c4)c3)cc2-c2ccncc2)c1
0.36

###

- System: PC-3 prostate
- experiment: NCI tumour cell line growth inhibition, 48 h
TGI values for the compounds below.
measured_parameter: TGI

1) COC(=O)c1cc(OS(=O)(=O)C(F)(F)F)c(=O)n2c1CCCC2
> 100 µM
2) COC1CC(OC2CCC3(C)C(=CCC4C3C(OC(C)=O)C(OC(=O)CC(C)C)C3(C)C(C(C)=O)CCC43O)C2)OC(C)C1OC1CC(OC)C(OC2CC(OC)C(OC3OC(C)C(O)C(OC)C3O)C(C)O2)C(C)O1 (centres undefined)
> 100 µM
3) Cn1c2c(c3ccccc31)CCN=C2C1CCCOC1=O (centres undefined)
> 100 µM
4) Cc1ccc(S(=O)(=O)OCC#CCOS(=O)(=O)c2ccc(C)cc2)cc1
3.6 µM

###

- Test system: DU-145 prostate
- experiment: NCI tumour cell line growth inhibition, 48 h; in the data active = GI50 below about 0.43 µM; inactive = the rest
Possible outcomes: true for active, false for inactive

1. [N-]=[N+]=NCCCn1c2c(c3ccc([N+](=O)[O-])cc3c1=O)C(=O)c1cc3c(cc1-2)OCO3
true
2. Cc1c(Cl)c(=O)oc2cc(OC/C=C3\CCC(=O)O3)ccc12
false
3. O=C(CSCC(=O)N/N=C/c1ccccc1O)N/N=C\c1ccccc1O
false
4. COc1ccc(C(C)c2cc(OC)c(OC)c(OC)c2)cc1 (stereo not given)
true
5. COc1cc(Cl)cc(-c2nn(-c3cccc(NC(=O)Nc4cccc(C(F)(F)F)c4)c3)cc2-c2ccncc2)c1
false

###

- Tested on: U251 CNS
- experiment: NCI tumour cell line growth inhibition, 48 h
TGI values for the compounds below.
measured_parameter: TGI (µM)

1) C=CC(COC(=O)C(C)(C)OC(C)=O)c1ccc(OC(=O)C(C)C)c(OC)c1 (configuration not stated)
25.8
2) CC(C)(C)OC(=O)N1CC(CCl)c2ccc(O)cc21 (configuration not stated)
12.1
3) CNCC/C=C1\c2cc3c(cc2-c2c1c1cc(OC)c(OC)cc1c(=O)n2C)OCO3
19.1
4) CC[C@@]1(OC(=O)CN(C)C)C(=O)OCc2c1cc1n(c2=O)Cc2cc3c(N)cccc3nc2-1
0.249
5) c1cc(-c2ccc(-c3nc4ccc(C5=NCCN5)cc4s3)s2)ccc1C1=NCCN1
0.821
6) CC(C)(C)OC(=O)NCCCCn1c2c(c3ccccc3c1=O)C(=O)c1ccccc1-2
37.6
7) CN(CCNC(=O)c1c[nH]c2c1ccc1ccccc12)CCNC(=O)c1c[nH]c2c1ccc1ccccc12
4.03
8) CCc1c2cc(OC)c(OC)cc2cc2c3cc(OC)c(OC)cc3cc[n+]12 (tested in a mixture with another compound)
57.2
9) O=C1Nc2cc(-c3cccc(O)c3)ccc2/C1=C/c1ccc[nH]1
12.1
10) CNC(=O)c1cc(Oc2cccc3nc(NC(=O)Nc4cc(C(F)(F)F)cc(C(F)(F)F)c4)ccc23)ccn1
6.27
11) O=C(O)c1cc2ccccc2c2c3c(ccc12)OCO3
478
12) CCCOc1cc2ccccc2cc1C(=O)Nc1nc(NC)c2c(ccc3nccc32)[nH]1
1.74
13) NCCCCCNc1noc(Cc2c[nH]c3cc(Br)ccc23)n1
16.6
14) N#Cc1cnc2cc(OC[C@@H](O)CO)c(NC(=O)C3CCCC3)cc2c1Nc1ccc(OCc2cccc(F)c2)c(Cl)c1
15.6

###

- Tested on: COLO 205 colon
- experiment: NCI tumour cell line growth inhibition, 48 h; in the data active means GI50 below about 0.43 µM; inactive means the rest
Possible outcomes: Yes = active, No = inactive

1. O=C(NCCc1ccccc1)Nc1ccc2cc3ccc(NC(=O)NCCc4ccccc4)cc3nc2c1
Yes
2. COc1cc(-n2cc(-c3ccccc3)[nH]c2=O)cc(OC)c1OC
No
3. C[N+](C)(C)CC1CCC(C[N+](C)(C)C)C1=O (stereo not given)
No
4. C[C@]12CC[C@@H]3c4ccc(O)cc4CC[C@H]3[C@@H]1CC[C@@H]2NS(=O)(=O)c1ccc(Br)cc1
No
5. O=[N+]([O-])c1cccc(-c2nc(-c3ccc(Cl)cc3Cl)cn2-c2ccccc2)c1
No
6. Clc1ccc(C2CC(c3cccc(Nc4ccncc4)c3)=NN2c2ccc(Cl)cc2)cc1 (stereo not given)
No
7. Cc1ccc(Nc2cc(Cl)c([N+](=O)[O-])cc2[N+](=O)[O-])cc1
No
8. O=C(Nc1cccc(-n2cc(-c3ccncc3)c(-c3ccc(O)c(Cl)c3)n2)c1)c1ccc2c(c1)OCCO2
No
9. N#CC1=C(N)NC(=S)NC1c1ccc(-c2ccc(-c3nc4ccccc4o3)cc2)s1 (stereo not given)
No
10. Cc1cc(-c2nnc(/C=C/c3ccc4c(c3)OCO4)o2)n[nH]1
No

###

- Tested on: BT-549 breast
- experiment: NCI tumour cell line growth inhibition, 48 h
measured_parameter: TGI

1. C=C1C(=O)O[C@H]2C1C[C@@H](O)/C(C)=C/CC[C@@]1(C)O[C@H]21 (stereo partly specified)
> 44.5 µM
2. COc1cccc(/C=C/c2nc3c(cnn3-c3ccccc3)c(=O)[nH]2)c1
> 100 µM
3. COc1ccc2c(c1)c1c(n2CCN2CCOCC2)-c2cccc(OC)c2CC1
> 100 µM
4. COc1cc2c(cc1OC)C1c3ccccc3CCN1CCC2 (stereo unspecified)
81.4 µM
5. O/N=C1\CC2(N3CCOCC3)CCC1(c1ccccc1)CC2
> 100 µM
6. COc1ccc(C(=O)NC2=C(Cl)C(=O)c3ccccc3C2=O)cc1
9.64 µM

###

TGI values for the compounds below.
- System: A549 NSCLC
- experiment: NCI tumour cell line growth inhibition, 48 h
measured_parameter: TGI (µM)

1) O=C(NCCc1ccccc1)Nc1ccc2cc3ccc(NC(=O)NCCc4ccccc4)cc3nc2c1
14.7
2) S=C=Nc1ccc(CSc2nc3ccccc3[nH]2)cc1
31
3) C[C@]12Cc3cnc(-c4ccccc4)nc3C[C@@H]1CC[C@@H]1[C@@H]2CC[C@@]2(C)[C@H]1CC[C@]2(C)O
57.6

###

- Test system: SNB-75 CNS
- experiment: NCI tumour cell line growth inhibition, 48 h
TGI values for the compounds below.
measured_parameter: TGI (µM)

1) C[C@]12CC[C@@H]3c4ccc(O)cc4CC[C@H]3[C@@H]1CC[C@@H]2NS(=O)(=O)c1ccc(Br)cc1
9.15
2) O=[N+]([O-])c1ccc(-n2nc3ccc4c(no[n+]4[O-])c3[n+]2[O-])c([N+](=O)[O-])c1
23.5
3) CC1=CC(C)(c2c[nH]c3ccccc23)CC(C)(C)c2c1[nH]c1ccccc21 (configuration not stated)
67.4
4) COC(=O)CCC(=O)N1C/C(=C\c2ccccc2)C(=O)/C(=C/c2ccccc2)C1
5.27
5) COCCOCCOCc1n(Cc2ccc3ccccc3c2)c2ccccc2[n+]1Cc1ccc2ccccc2c1
1.31
6) O=[N+]([O-])C1=Cc2cc(Cl)ccc2OC1c1cccc2ccccc12 (configuration not stated)
1.95

###

- System: A549 NSCLC
- experiment: NCI tumour cell line growth inhibition, 48 h
measured_parameter: TGI

1. CCc1c2cc(OC)c(OC)cc2cc2c3cc(OC)c(OC)cc3cc[n+]12 (tested in a mixture with another compound)
> 96.6 µM
2. CCN(CC)Cc1ccccc1CC(=O)N1c2ccccc2C(=O)Nc2cccnc21
> 100 µM
3. COc1cccc(/C=C/c2nc3c(cnn3-c3ccccc3)c(=O)[nH]2)c1
> 100 µM
4. N#Cc1c(-c2ccccc2)cc(-c2ccc(N)cc2)[nH]c1=O
> 100 µM
5. CCO/S(=N/S(=O)(=O)c1ccccc1)c1ccccc1[N+](=O)[O-] (stereo not given)
> 100 µM
6. COC(=O)CN(CC(O)C(NC(C)=O)C(O)C=O)C(=O)OCc1ccccc1 (stereo not given)
> 100 µM
7. O=C1CC[C@H](N2Cc3c(OCc4ccc(CN5CCOCC5)cc4)cccc3C2=O)C(=O)N1
> 100 µM
8. CC1=CC(C)(c2c[nH]c3ccccc23)CC(C)(C)c2c1[nH]c1ccccc21 (stereo not given)
28.3 µM
9. O=C1C(=C2CCCC2)CCC1CN1CCCCC1 (stereo not given)
> 100 µM
10. COc1cc2cc(C(=O)N3CC(CCl)c4ccc([N+](C)(C)Cc5ccc([N+](=O)[O-])cc5)cc43)[nH]c2c(OC)c1OC (stereo not given)
> 100 µM
11. CC1(C)CCCC2(C)C3C(O)CC2(C)C(O)C31 (stereo not given)
> 100 µM
12. O=C(O)c1nc2ccc(Cl)cc2[nH]c1=O
> 100 µM
13. CO[C@@H]1CCN(c2nccc(Nc3cc4c(C(C)C)ccc(N5CC(CS(C)(=O)=O)[C@H]5C)c4cn3)n2)C[C@@H]1F (stereo not given in full)
> 100 µM
14. C=C1C(=O)OC2C1C(OC(=O)/C(C)=C/C)CC(O)(CCl)C1C(O)C=C(C)C21O (stereo not given)
> 63.7 µM
15. O=C(O)Cc1ccc(Nc2nc3ccccc3nc2C(=O)O)cc1
> 100 µM
16. O=NN1C(c2ccccc2)C2CCCC(C2=O)C1c1ccccc1 (stereo not given)
> 100 µM
17. [N-]=[N+]=NCCCn1c2c(c3ccc([N+](=O)[O-])cc3c1=O)C(=O)c1cc3c(cc1-2)OCO3
2.87 µM
18. Cc1cccc(C)c1NC(=O)CCC/C(CC(=O)c1ccc(F)cc1)=N\NC(=O)C(=O)NN
> 100 µM
19. Cc1ccc(S(=O)(=O)NC(=O)NCCc2ccccc2)cc1
> 100 µM
20. Cn1c(=O)nc2n(-c3ccc(Cl)cc3)c(-c3ccccc3)c(-c3ccccc3)nc-2c1=O
> 100 µM

Reference source: PubChem BioAssay (NCI)
